target-under-test: L-lactate dehydrogenase (Plasmodium falciparum (isolate CDC / Honduras)) (UniProt Q27743)
Sequence (Q27743 whole entry, looked up): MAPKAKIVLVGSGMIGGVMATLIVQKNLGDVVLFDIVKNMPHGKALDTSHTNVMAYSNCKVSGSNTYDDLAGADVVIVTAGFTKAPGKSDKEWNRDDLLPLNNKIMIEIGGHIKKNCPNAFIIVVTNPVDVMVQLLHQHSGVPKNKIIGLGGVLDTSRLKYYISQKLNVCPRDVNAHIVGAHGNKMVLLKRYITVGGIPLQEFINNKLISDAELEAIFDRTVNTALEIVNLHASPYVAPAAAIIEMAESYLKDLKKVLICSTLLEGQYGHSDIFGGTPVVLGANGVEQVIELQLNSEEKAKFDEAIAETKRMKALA
experimental-protocol: PfLDH activity inhibition – cell lysate, 3D7 strain, counter-screen for P. falciparum growth inhibition project (AID 2304);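 also: 0% = vehicle and 100% = reference inhibitor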
protocol-conditions: P. falciparum 3D7 crude extract, LDH APAD/NBT absorbance; at 2 µM; active compounds read high
Parameter: inhibition. Scope: all listed entries.
measure-name: inhibition (%)

INSERT INTO assay_data (compound, target_under_test, measure_name, readout_number) VALUES
  ('CC(C)(C)Nc1cc(C2CC2)nc(-c2ccccn2)n1', 'L-lactate dehydrogenase (Plasmodium falciparum (isolate CDC / Honduras)) (UniProt Q27743)', 'inhibition', -1),
  ('FC(F)(F)c1ccc2nc(-c3ccc(-c4cccc(CNCc5ccccc5)c4)s3)[nH]c2c1', 'L-lactate dehydrogenase (Plasmodium falciparum (isolate CDC / Honduras)) (UniProt Q27743)', 'inhibition', -5),
  ('N=c1n(CCN2CCCCC2)c2ccccc2n1CC(O)c1cccc(Br)c1 (centres undefined)', 'L-lactate dehydrogenase (Plasmodium falciparum (isolate CDC / Honduras)) (UniProt Q27743)', 'inhibition', -1),
  ('CC[C@H](NC(=O)c1c(CC2CCN(CC(C)=O)CC2)c(-c2ccccc2)nc2ccccc12)c1ccccc1', 'L-lactate dehydrogenase (Plasmodium falciparum (isolate CDC / Honduras)) (UniProt Q27743)', 'inhibition', 3),
  ('CC(C)(CNCc1ccc(Cl)cc1)c1nc(-c2ccc(Cl)c(O)c2)c(-c2ccncc2)[nH]1', 'L-lactate dehydrogenase (Plasmodium falciparum (isolate CDC / Honduras)) (UniProt Q27743)', 'inhibition', 5),
  ('CC1CCCC(Nc2noc(-c3sccc3Br)n2)C1 (centres undefined)', 'L-lactate dehydrogenase (Plasmodium falciparum (isolate CDC / Honduras)) (UniProt Q27743)', 'inhibition', 0),
  ('C[C@@H]1CN(c2ccc3[nH]cc(Sc4ccc(-c5cccs5)cc4)c3c2)C[C@H](C)N1', 'L-lactate dehydrogenase (Plasmodium falciparum (isolate CDC / Honduras)) (UniProt Q27743)', 'inhibition', -4),
  ('CCOC(=O)c1cccc(NC(=O)Nc2cccc(-c3ncc(OCCCN)c4c3nc(-c3nonc3N)n4CC)c2)c1', 'L-lactate dehydrogenase (Plasmodium falciparum (isolate CDC / Honduras)) (UniProt Q27743)', 'inhibition', 2),
  ('COc1ccc(-c2cnc3ccc(NCCCO)nn23)cc1OC', 'L-lactate dehydrogenase (Plasmodium falciparum (isolate CDC / Honduras)) (UniProt Q27743)', 'inhibition', -1),
  ('CCN1CCN(c2ccc(Nc3c4ccccc4nc4ccccc34)cc2)CC1', 'L-lactate dehydrogenase (Plasmodium falciparum (isolate CDC / Honduras)) (UniProt Q27743)', 'inhibition', -2),
  ('CNc1ccc(CNCc2cccc(-c3ccc(-c4nc5c(C)cccc5[nH]4)s3)c2)cc1', 'L-lactate dehydrogenase (Plasmodium falciparum (isolate CDC / Honduras)) (UniProt Q27743)', 'inhibition', -2),
  ('CC(C)(C)c1ccc(-c2nnc(N)nc2N)cc1', 'L-lactate dehydrogenase (Plasmodium falciparum (isolate CDC / Honduras)) (UniProt Q27743)', 'inhibition', -4),
  ('Cc1nn(-c2ccccc2)nc1C(=O)N(Cc1ccc(-c2ccc(CNCCc3ccc(S(C)(=O)=O)cc3)cn2)cc1)C1CC1', 'L-lactate dehydrogenase (Plasmodium falciparum (isolate CDC / Honduras)) (UniProt Q27743)', 'inhibition', -2),
  ('CCOC(=O)c1ccc(NC(=O)N[C@@H](Cc2ccccc2)C(=O)NC2CCN(Cc3ccc(O)cc3)C2)cc1 (some centres undefined)', 'L-lactate dehydrogenase (Plasmodium falciparum (isolate CDC / Honduras)) (UniProt Q27743)', 'inhibition', -6),
  ('CCCCNCc1ccc(OCc2cccc(COc3ccc(CNCCCC)cc3I)c2)c(I)c1', 'L-lactate dehydrogenase (Plasmodium falciparum (isolate CDC / Honduras)) (UniProt Q27743)', 'inhibition', 6),
  ('CN(Cc1cc(C(F)(F)F)cc(C(F)(F)F)c1)C(=O)[C@H]1CNC[C@@H]1c1ccc(F)cc1', 'L-lactate dehydrogenase (Plasmodium falciparum (isolate CDC / Honduras)) (UniProt Q27743)', 'inhibition', -5),
  ('O=C(/C=C/c1ccc(Cl)c(Cl)c1)NCCCCCN1CCCC(CNC(=O)c2sc3ccccc3c2Cl)C1 (centres undefined)', 'L-lactate dehydrogenase (Plasmodium falciparum (isolate CDC / Honduras)) (UniProt Q27743)', 'inhibition', 4),
  ('O=C(Nc1cccc(Cl)c1)c1cnc(N2CCN(c3ccncc3)CC2)c(Cl)c1', 'L-lactate dehydrogenase (Plasmodium falciparum (isolate CDC / Honduras)) (UniProt Q27743)', 'inhibition', 4),
  ('COc1ccc2nccc([C@@H](O)CN3CCC(NC(=O)C(c4cccs4)N4CCN(c5ccc(F)cc5)CC4)CC3)c2c1 (some centres undefined)', 'L-lactate dehydrogenase (Plasmodium falciparum (isolate CDC / Honduras)) (UniProt Q27743)', 'inhibition', 3),
  ('C(=N\Nc1nccc2sc(-c3ccccc3)cc12)/c1cccnc1', 'L-lactate dehydrogenase (Plasmodium falciparum (isolate CDC / Honduras)) (UniProt Q27743)', 'inhibition', 8),
  ('CC(Oc1ccc(Cl)cc1)C(=O)N(C)C1CCN(CCCCCNC(=O)/C=C/c2ccc(Cl)c(Cl)c2)CC1 (centres undefined)', 'L-lactate dehydrogenase (Plasmodium falciparum (isolate CDC / Honduras)) (UniProt Q27743)', 'inhibition', -2),
  ('COc1ccc(C2CCN(CCN3CCC(NC(=O)c4ccc(-c5cccc(C(F)(F)F)c5C(F)(F)F)cc4)CC3)CC2)c(OC)c1', 'L-lactate dehydrogenase (Plasmodium falciparum (isolate CDC / Honduras)) (UniProt Q27743)', 'inhibition', -4),
  ('COc1ccc(CNC2CCN(C)CC2)cc1-c1ccc(S(=O)(=O)NCCN2CCCC2)s1', 'L-lactate dehydrogenase (Plasmodium falciparum (isolate CDC / Honduras)) (UniProt Q27743)', 'inhibition', -2),
  ('O=C(NCCN1CCCC1)c1cccc(Nc2nccc(Nc3ccc(Oc4ccccc4)cc3)n2)c1', 'L-lactate dehydrogenase (Plasmodium falciparum (isolate CDC / Honduras)) (UniProt Q27743)', 'inhibition', -3),
  ('CCn1c(-c2nonc2N)nc2c(-c3ccccc3)ncc(OCCCCNCCc3ncc[nH]3)c21', 'L-lactate dehydrogenase (Plasmodium falciparum (isolate CDC / Honduras)) (UniProt Q27743)', 'inhibition', -1),
  ('Fc1cc(Cl)ccc1Nc1ccnc2cc(-c3ccc(CNCCN4CCOCC4)o3)ccc12', 'L-lactate dehydrogenase (Plasmodium falciparum (isolate CDC / Honduras)) (UniProt Q27743)', 'inhibition', -2),
  ('O=C(C1CCN(C(c2ccccc2)c2ccc(Cl)c(Cl)c2)CC1)N1CC=CC1 (centres undefined)', 'L-lactate dehydrogenase (Plasmodium falciparum (isolate CDC / Honduras)) (UniProt Q27743)', 'inhibition', 7),
  ('COc1cc(NC(=O)/C=C/c2cc(F)cc(F)c2F)cc(OCCN2CCC3(CC2)OCCO3)c1', 'L-lactate dehydrogenase (Plasmodium falciparum (isolate CDC / Honduras)) (UniProt Q27743)', 'inhibition', -3),
  ('Cc1[nH]c(C)c(-c2ccc(Oc3ccc(Cl)cc3)cc2)c(=O)c1C', 'L-lactate dehydrogenase (Plasmodium falciparum (isolate CDC / Honduras)) (UniProt Q27743)', 'inhibition', -8);
